system: VchCAST RNA-guided transposition machinery (E. coli BL21(DE3) host, lacZ target); assay: relative integration efficiency (T-LR orientation) vs wild-type transposon end (log2 (normalized fold change)); transposon end mutated: right end (5 bp flank + 75 bp right end); higher = more efficient transposition
MEASUREMENT_KIND: relative integration efficiency (log2)

ORDERED_RESIDUES	OBSERVED
ACATTTGTTCATACAACCATAAAATGATAATTACACCCATAAATTCATCATTATCACCCCCAATTTAACTATAACGCTCTGATCATAGTCAGACCAACATTGCTACGACCCGTATTCGCACCGACAC	0.174
ACATTTGTTGATACAACCATAAAATGATTATTACACCCATTAATTGATAATTATCACACCCAATTTAACTATAACGCTCTGATCATAGTCAGACCAACATTGCTACGACCCGTATTCGCACCGACAC	2.31
ACATTGGTTGATACAACCATAAAATGATAATTACACCCATAAATGGATAATTATCACACCCAATTTAACTATAACGCTCTGATCATAGTCAGACCAACATTGCTACGACCCGTATTCGCACCGACAC	-5.61
ACATTTGTTGATACAACCATCAAATGGTAATTCCACCCATACATTGATAATTATCACACCCAATTTAACTATAACGCTCTGATCATAGTCAGACCAACATTGCTACGACCCGTATTCGCACCGACAC	-2.28
ACATTTGTTGATACAACCATAAGTTGATATTTTCAACCATAAGTTGATATTTTTCACAACCATAAAGTGATATTTACTCTGATCATAGTCAGACCAACATTGCTACGACCCGTATTCGCACCGACAC	-0.145

----------
Listed sequences paired with reported relative integration efficiency (log2)
tested on: VchCAST RNA-guided transposition machinery (E. coli BL21(DE3) host, lacZ target); assay: relative integration efficiency (T-RL orientation) vs wild-type transposon end (log2 (normalized fold change)); transposon end mutated: right end (5 bp flank + 75 bp right end); higher = more efficient transposition

ORDERED_RESIDUES	relative integration efficiency (log2)
ACATTTGTTGATACAACCATAAAATGATACGGCCACCCATAAATTGATACGGCTCACACCCATAAATTGATAGGTACTCTGATCATAGTCAGACCAACATTGCTACGACCCGTATTCGCACCGACAC	-1.54
ACATTGGTTCATACAACCATAAAATGATAATTACACCCATAAATGGATCATTATCACACCCAATTTAACTATAACGCTCTGATCATAGTCAGACCAACATTGCTACGACCCGTATTCGCACCGACAC	-7.4
ACATTTGTTGATACACCCATAAATTGATATTGCCACCCATAAATTGATATTGCTCACAACCATAAAATGATAATTACTCTGATCATAGTCAGACCAACATTGCTACGACCCGTATTCGCACCGACAC	-0.874
ACATTTGTTGCAACCATAAAATGATAATTACACCCATAAATTGATAATTATCACACCCATAAATTGATATTGCCTCTGATCATAGTCAGACCAACATTGCTACGACCCGTATTCGCACCGACACTGA	-7.1
ACATTTGTTGATACAACCATAAGTTGATATTTTCACCCATAAATTGATAATTATCACAACCATAAAGTGATATTTACTCTGATCATAGTCAGACCAACATTGCTACGACCCGTATTCGCACCGACAC	-0.345
ACATTGGTCGATACAACCATAAAATGATAATTACACCCATAAATTCATCATTATCACACCCAATTTAACTATAACGCTCTGATCATAGTCAGACCAACATTGCTACGACCCGTATTCGCACCGACAC	-7.04
ACATTTGTCGATACAACCATAAAATGATAATTACACCCATAAATTGATCATTATCACACCCAATTTAACTATAACGCTCTGATCATAGTCAGACCAACATTGCTACGACCCGTATTCGCACCGACAC	-1.31
AGTTTTGTTGATACAACCATAAAATGATAATTACACCCATAAATTGATAATTATCACACCCATAAATTGATATTGCCTCTGATCATAGTCAGACCAACATTGCTACGACCCGTATTCGCACCGACAC	0.00539
ACATTTGTTGATACAACCATCAAATGGTAATTACACCCCTAAATTGATAATTATCACACCCAATTTAACTATAACGCTCTGATCATAGTCAGACCAACATTGCTACGACCCGTATTCGCACCGACAC	-4.79
ACATTTGTTGATACCACCATAAAATGATAATTCCACCCCTACATTGATAATTATCACACCCAATTTAACTATAACGCTCTGATCATAGTCAGACCAACATTGCTACGACCCGTATTCGCACCGACAC	-3.78

Hello, the source for this data is the supplement of paper PMC10201428, in case you need it.
